src = ChEMBL document CHEMBL1148427

Tested on: UniProt P27487
Measurement notes: Inhibitory activity against human recombinant Dipeptidylpeptidase IV
Metric name: IC50 (nM)
Use nM as the unit, but write only the number.

Quick one: IC50 of `N[C@H](C(=O)N1CCCC1)[C@@H]1CC[C@@H](NS(=O)(=O)c2ccc(C(=O)O)cc2)C1` ?
110

Any idea what IC50 was measured for `N[C@@H](C(=O)N1CCSC1)[C@H]1CC[C@@H](OC(=O)Nc2cccc(F)c2)C1` ?
1200

Consider the molecule shown here: `N[C@@H](C(=O)N1CCSC1)[C@H]1CC[C@@H](OC(=O)Nc2cccc3ccccc23)C1` What is its recorded IC50?
1700

###

For each entry below, report its IC50 value.
Tested on: Prolyl endopeptidase (Homo sapiens)
Sequence (P48147 whole entry): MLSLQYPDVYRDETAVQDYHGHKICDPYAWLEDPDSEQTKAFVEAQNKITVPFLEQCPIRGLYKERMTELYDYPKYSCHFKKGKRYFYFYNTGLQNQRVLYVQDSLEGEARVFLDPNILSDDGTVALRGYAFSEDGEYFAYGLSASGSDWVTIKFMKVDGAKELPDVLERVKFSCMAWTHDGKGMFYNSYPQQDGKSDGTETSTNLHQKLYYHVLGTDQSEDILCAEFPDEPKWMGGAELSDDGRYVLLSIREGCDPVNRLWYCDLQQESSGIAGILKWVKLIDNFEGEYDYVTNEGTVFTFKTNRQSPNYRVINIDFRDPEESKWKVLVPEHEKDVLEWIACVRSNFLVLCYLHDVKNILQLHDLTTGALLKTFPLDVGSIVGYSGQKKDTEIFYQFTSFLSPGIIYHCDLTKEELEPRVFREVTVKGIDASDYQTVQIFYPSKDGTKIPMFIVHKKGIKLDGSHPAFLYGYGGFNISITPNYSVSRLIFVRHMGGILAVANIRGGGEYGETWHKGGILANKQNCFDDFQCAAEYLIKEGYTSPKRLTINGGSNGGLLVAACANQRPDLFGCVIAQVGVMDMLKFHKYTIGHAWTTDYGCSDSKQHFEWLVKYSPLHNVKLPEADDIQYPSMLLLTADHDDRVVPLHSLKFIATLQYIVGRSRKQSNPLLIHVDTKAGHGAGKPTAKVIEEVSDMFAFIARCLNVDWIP
Measurement notes: Inhibitory activity against human prolylendopeptidase

For the compound shown here, `CS(=O)(=O)c1ccc(S(=O)(=O)N[C@H]2CC[C@H]([C@H](N)C(=O)N3CCCC3)C2)cc1` , give the reported IC50.
> 100 µM

Which IC50 value belongs to `N[C@H](C(=O)N1CCCC1)[C@H]1CCC[C@@H](OC(=O)Nc2ccc(I)cc2)C1` ?
27 µM

# get_value(readout='IC50', item= `COc1ccc(NC(=O)O[C@@H]2CCC[C@H]([C@H](N)C(=O)N3CCCC3)C2)cc1` )
> 100 µM

// lookup IC50 for `N[C@H](C(=O)N1CCCC1)[C@H]1CCC[C@H](OC(=O)Nc2ccc(I)cc2)C1`
> 100 µM

May I ask what IC50 has been recorded for `N[C@H](C(=O)N1CCSC1)[C@H]1CC[C@H](NC(=O)Nc2cccc3ccccc23)C1` ?
2.1 µM

For `CS(=O)(=O)c1ccc(S(=O)(=O)N[C@H]2CC[C@@H]([C@H](N)C(=O)N3CCCC3)C2)cc1` , what is its reported IC50?
> 100 µM

Value lookup for IC50; key = `CS(=O)(=O)c1ccccc1S(=O)(=O)N[C@H]1CC[C@H]([C@H](N)C(=O)N2CCCC2)C1`
> 100 µM

###

Tested on: Dipeptidyl peptidase 4 (Homo sapiens)
Sequence (P27487 whole entry): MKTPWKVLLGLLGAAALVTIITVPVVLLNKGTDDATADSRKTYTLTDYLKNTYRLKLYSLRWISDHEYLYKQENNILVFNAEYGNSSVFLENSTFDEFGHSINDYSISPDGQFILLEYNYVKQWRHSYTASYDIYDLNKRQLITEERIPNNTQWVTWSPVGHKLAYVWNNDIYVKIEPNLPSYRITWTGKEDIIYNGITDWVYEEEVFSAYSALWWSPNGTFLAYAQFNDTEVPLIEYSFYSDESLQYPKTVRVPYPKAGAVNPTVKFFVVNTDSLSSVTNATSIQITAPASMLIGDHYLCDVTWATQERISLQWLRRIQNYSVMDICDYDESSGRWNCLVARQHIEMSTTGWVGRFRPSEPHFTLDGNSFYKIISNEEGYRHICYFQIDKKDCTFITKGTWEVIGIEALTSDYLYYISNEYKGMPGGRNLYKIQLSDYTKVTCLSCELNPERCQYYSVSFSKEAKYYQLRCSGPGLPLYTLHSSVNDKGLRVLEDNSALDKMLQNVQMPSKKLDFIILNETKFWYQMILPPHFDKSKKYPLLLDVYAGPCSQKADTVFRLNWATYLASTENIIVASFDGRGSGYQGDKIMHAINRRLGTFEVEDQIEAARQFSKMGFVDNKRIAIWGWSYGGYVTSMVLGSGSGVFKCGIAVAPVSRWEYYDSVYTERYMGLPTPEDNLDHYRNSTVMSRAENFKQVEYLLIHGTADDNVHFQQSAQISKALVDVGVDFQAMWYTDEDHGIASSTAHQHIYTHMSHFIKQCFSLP
Measurement notes: Inhibitory activity against human recombinant Dipeptidylpeptidase IV
pIC50: −log10 of the molar value.
Mark 1 (yes) for reported pIC50 of 7 or greater; mark 0 (no) for anything smaller.

Tell me whether pIC50 is at least 7 here: `N[C@H](C(=O)N1CCCC1)[C@@H]1CC[C@@H](NS(=O)(=O)c2ccc(OC(F)(F)F)cc2)C1`
0 (no)

Confirm if pIC50 reported for the compound `N[C@H](C(=O)N1CCCC1)[C@@H]1CC[C@@H](NS(=O)(=O)c2ccc(S(N)(=O)=O)cc2)C1` is 7 or above.
1 (yes)

Could you tell me if the measured pIC50 of `CS(=O)(=O)c1ccc(S(=O)(=O)N[C@@H]2CC[C@@H]([C@H](N)C(=O)N3CCCC3)C2)cc1` reaches 7 or more?
1 (yes)

Quick check: does `N[C@H](C(=O)N1CCCC1)[C@H]1CC[C@H](NS(=O)(=O)c2ccc(S(=O)(=O)C(F)(F)F)cc2)C1` have pIC50 greater than or equal to 7?
0 (no)

Check the entry `N[C@H](C(=O)N1CCCC1)[C@@H]1CC[C@H](OC(=O)Nc2ccc(I)cc2)C1` : does pIC50 equal or exceed 7?
0 (no)

Kindly determine if pIC50 recorded for `N[C@H](C(=O)N1CCCC1)[C@H]1CC[C@@H](OC(=O)Nc2ccc(I)cc2)C1` is above or exactly 7.
0 (no)

Assess whether reported pIC50 for `N[C@H](C(=O)N1CCCC1)[C@H]1CCC[C@H](OC(=O)Nc2ccc(I)cc2)C1` sits at 7 or higher.
0 (no)

Hi, just wondering whether `N[C@H](C(=O)N1CCCC1)[C@H]1CC[C@@H](NS(=O)(=O)c2ccc(OC(F)(F)F)cc2)C1` shows pIC50 of 7 or higher.
0 (no)

Identify whether the reported pIC50 of the following compound is 7 or greater: `COc1ccc(NC(=O)O[C@@H]2CCC[C@H]([C@H](N)C(=O)N3CCCC3)C2)cc1`
0 (no)

Decide: is the reported value of pIC50 for `N[C@H](C(=O)N1CCSC1)[C@H]1CC[C@@H](OC(=O)Nc2cccc(F)c2)C1` equal to or greater than 7?
0 (no)

###

Tested on: Dipeptidyl peptidase 2 (Homo sapiens, UniProt Q9UHL4)
Record form. Attribute: IC50. Fill in for each entry.
Note: unit nM is implicit; provide only the numeric part.

Returns the measured IC50 for the input molecule. Input: `N[C@H](C(=O)N1CCCC1)[C@@H]1CC[C@@H](NC(=O)Nc2cccc3ccccc23)C1`
430

I am curious: what IC50 value has been reported for `N[C@H](C(=O)N1CCCC1)[C@H]1CC[C@@H](NS(=O)(=O)c2ccc(OC(F)(F)F)cc2)C1` ?
750

Could you share which IC50 value was measured for `N[C@@H](C(=O)N1CCSC1)[C@H]1CC[C@@H](OC(=O)Nc2cccc(F)c2)C1` ?
540

IC50 for `N[C@H](C(=O)N1CCCC1)[C@H]1CC[C@H](NS(=O)(=O)c2ccc(S(=O)(=O)C(F)(F)F)cc2)C1` ?
110

For the molecule shown here, `N[C@H](C(=O)N1CCCC1)[C@@H]1CC[C@@H](NS(=O)(=O)c2ccc(OC(F)(F)F)cc2)C1` , give the reported IC50.
1700

Item `COc1ccc(NC(=O)O[C@@H]2CCC[C@H]([C@H](N)C(=O)N3CCSC3)C2)cc1` has what recorded IC50?
220

What value of measured IC50 is listed for `N[C@H](C(=O)N1CCCC1)[C@H]1CC[C@@H](NC(=O)c2cccc3ccccc23)C1` ?
990

Fill blank: measured IC50 of the molecule `COc1ccc(NC(=O)O[C@@H]2CCC[C@H]([C@H](N)C(=O)N3CCCC3)C2)cc1` is ____.
2500

Returns the measured IC50 for the input molecule. Input: `N[C@H](C(=O)N1CCCC1)[C@H]1CC[C@@H](O)C1`
50000

What value of IC50 has been recorded for this entry: `CS(=O)(=O)c1ccc(S(=O)(=O)N[C@@H]2CC[C@@H]([C@H](N)C(=O)N3CCCC3)C2)cc1`
1600

Which IC50 value belongs to `N[C@H](C(=O)N1CCCC1)[C@@H]1CC[C@@H](OC(=O)Nc2ccc(I)cc2)C1` ?
820

Requested read-out: IC50. Entry: `N[C@H](C(=O)N1CCCC1)[C@H]1CC[C@@H](OC(=O)Nc2ccccc2-c2ccccc2)C1`
870
